Tested System: human hematopoietic prostaglandin D2 synthase (Homo sapiens)
Sequence (O60760 whole entry): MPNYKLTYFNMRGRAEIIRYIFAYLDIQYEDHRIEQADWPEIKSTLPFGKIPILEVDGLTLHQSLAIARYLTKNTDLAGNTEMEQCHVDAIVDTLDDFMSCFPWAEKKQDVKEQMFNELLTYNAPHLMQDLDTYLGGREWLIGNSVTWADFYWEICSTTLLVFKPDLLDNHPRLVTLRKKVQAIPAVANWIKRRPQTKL
Assay Method Text: Inhibitory activity against spleen-type (hematopoietic) prostaglandin D2 synthase, [14C]PGH2 to PGD2, TLC
Format: biochemical
Experimental Setup: Drug Concentration 10 μM; read-out: Inhibitory Ratio of Prostaglandin D2 (PGD2) Synthase (%)
Measure: inhibition at 10 µM (%)
Number only, in %; omit the unit.

# example entries with known answers
Cc1nn(-c2ccccc2)c(O)c1/C=N/n1c(C)nc2ccccc2c1=O
50
Cc1nc2ccccc2c(=O)n1/N=C/c1c(C(F)(F)F)nn(-c2ccccc2)c1O
96
CCc1nc2ccccc2c(=O)n1/N=C/c1c(C)nn(-c2ccccc2)c1O
13

Next compound, please.
Q: Record lookup: for human hematopoietic prostaglandin D2 synthase (Homo sapiens), what inhibition at 10 µM belongs to Cc1nn(-c2ccccc2)c(O)c1/C=N/n1c(C(C)C)nc2ccccc2c1=O ?
Result: 14
